Listing of entries alongside the reported pKd.
- experimental_target: T1, human CRHR1 extracellular domain (human)
- T1 chain: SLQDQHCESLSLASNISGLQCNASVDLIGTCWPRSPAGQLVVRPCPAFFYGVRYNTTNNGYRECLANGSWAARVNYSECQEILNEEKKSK
- experiment_notes: SPR
pKd: −log10 of the molar value.

>  <binder>
SEEPPISLDLTFHLLREVLEMARAEQLAQQAHSNRKLMEMI [tree shrew corticotrophin-releasing hormone (CRH) peptide]

>  <pKd>
5.69

$$$$
>  <binder>
SEEPPISLDLTFHLLREVLEMARAEQLAQQAHSNRKLMEIIGK [human corticotrophin-releasing hormone (CRH) peptide]

>  <pKd>
5.68

$$$$
